Listed variants paired with reported self-cleavage
B1: CPEB3 Ribozyme (parent)
chain: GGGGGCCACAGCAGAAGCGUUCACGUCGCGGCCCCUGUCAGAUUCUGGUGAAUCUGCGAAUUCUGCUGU

variants of: B1; assay: self-cleavage, relative activity (ratio to wild type); higher = more cleavage; co-transcriptional

alteration: G17U U61C
self-cleavage: 0.186

alteration: U26A G58U
self-cleavage: 0.852

alteration: G11U A59C
self-cleavage: 0.35

alteration: G31A G37U
self-cleavage: 0.213

alteration: C6A A42U
self-cleavage: 0.374

alteration: G2C U20G
self-cleavage: 0.0688

alteration: G25A G28U
self-cleavage: 0.132

alteration: U20C C32U
self-cleavage: 0.248

alteration: A15C C39A
self-cleavage: 0.359

alteration: U20A G41U
self-cleavage: 0.126

alteration: U49C G50A
self-cleavage: 0.981
